- Target entity: mAChR M4 (UniProt P08173)
- Construct: hM1 and hM4 cDNAs were purchased from Missouri S&T cDNA Resource
- Assay method text: mAChR M4 cell-based functional assay (calcium mobilization, Fluo-4, FDSS)
- Settings: positive allosteric modulator activity: concentration-dependent increase in the EC20 acetylcholine response, CHO-K1 cells; >10 μM estimated for low potency (no plateau)
Measured attribute: EC50

Worked examples, 5 compounds total:
> print(dat)
                                   compound     reading
1  Cc1ccnc2sc3c(NCC4CC4)nn(C)c3c12 [Compound 160]  > 10000 nM
2  Cc1cc(C)cc(CNc2nn(C)c3c2sc2nc(C)cc(C)c23)c1  > 10000 nM
3    COc1ccc(CNc2nn(C)c3c2sc2nc(C)ccc23)cc1      960 nM
4   Cc1cc(C)c2c(n1)sc1c(NCC3CCNCC3)nn(C)c12  > 10000 nM
5     CCCCC(=O)Nc1n[nH]c2c1sc1nc(C)cc(C)c12  > 10000 nM

Data request: Kindly state the measured EC50 obtained for Cc1cc(C)c2c(n1)sc1c(NC(C)CS(C)(=O)=O)nn(C)c12 (centres unmarked) with mAChR M4 (UniProt P08173).
Data returned: > 10000 nM

Data request: Kindly state the measured EC50 obtained for Cc1cc(C)c2c(n1)sc1c(NC3CCCC3)n[nH]c12 with mAChR M4 (UniProt P08173).
Data returned: 1740 nM

Data request: Kindly state the measured EC50 obtained for Cc1cc(C)c2c(n1)sc1c(NCc3ccsc3)nn(C)c12 with mAChR M4 (UniProt P08173).
Data returned: 62 nM

Data request: Kindly state the measured EC50 obtained for COc1cccc(C(=O)Nc2n[nH]c3c2sc2nc(C)cc(C)c23)c1 with mAChR M4 (UniProt P08173).
Data returned: > 10000 nM

Data request: Kindly state the measured EC50 obtained for Cc1ccc2c(n1)sc1c(NC(C)C)nn(C)c12 with mAChR M4 (UniProt P08173).
Data returned: > 10000 nM

Data request: Kindly state the measured EC50 obtained for Cc1cc(C)c2c(n1)sc1c(NC3CCN(C)CC3)n[nH]c12 with mAChR M4 (UniProt P08173).
Data returned: > 10000 nM

Data request: Kindly state the measured EC50 obtained for Cc1cc(C)c2c(n1)sc1c(NC3CCN(C)C3)nn(C)c12 (centres unmarked) with mAChR M4 (UniProt P08173).
Data returned: > 10000 nM

Data request: Kindly state the measured EC50 obtained for Cc1cc(C)c2c(n1)sc1c(NC3CCCSC3)nn(CCO)c12 (centres unmarked) with mAChR M4 (UniProt P08173).
Data returned: 430 nM

Data request: Kindly state the measured EC50 obtained for COc1ccc(CNc2n[nH]c3c2sc2nc(C)ccc23)cc1 with mAChR M4 (UniProt P08173).
Data returned: 1800 nM

###

- Target entity: mAChR M4 (UniProt P08173)
- Construct: hM1 and hM4 cDNAs were purchased from Missouri S&T cDNA Resource
- Sequence (P08173 1-479): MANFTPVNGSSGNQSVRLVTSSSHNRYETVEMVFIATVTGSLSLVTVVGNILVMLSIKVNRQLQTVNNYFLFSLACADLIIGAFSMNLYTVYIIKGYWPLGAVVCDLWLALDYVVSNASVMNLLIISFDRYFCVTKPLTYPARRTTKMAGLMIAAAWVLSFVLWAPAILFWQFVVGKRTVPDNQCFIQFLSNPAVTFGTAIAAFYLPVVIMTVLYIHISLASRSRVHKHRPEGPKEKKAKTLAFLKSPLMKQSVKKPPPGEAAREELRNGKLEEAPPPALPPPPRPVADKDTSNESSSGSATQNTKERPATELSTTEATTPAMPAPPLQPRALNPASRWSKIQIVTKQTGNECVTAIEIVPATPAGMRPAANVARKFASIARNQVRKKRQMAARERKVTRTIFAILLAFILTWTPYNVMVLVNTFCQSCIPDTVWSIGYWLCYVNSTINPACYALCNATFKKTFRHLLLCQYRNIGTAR
- Assay method text: mAChR M4 cell-based functional assay (calcium mobilization, Fluo-4, FDSS)
- Settings: positive allosteric modulator activity: concentration-dependent increase in the EC20 acetylcholine response, CHO-K1 cells; >10 μM estimated for low potency (no plateau)
pEC50: −log10 of the molar value.
Measured attribute: pEC50

> print(dat)
                                   compound  reading
1  Cc1nc2sc3c(NCc4ccc(F)cc4)n[nH]c3c2c(C)c1Cl [Compound 145]   < 5.00
2  Cc1nc2sc3c(NCC4CCCCC4)n[nH]c3c2c(C)c1Cl [Compound 142]   < 5.00
3  Cc1ccc2c(n1)sc1c(NCc3ccc(Cl)cc3)nn(C)c12 [Compound 56]   < 5.00

Here is the next item to consider.
Data request: // pEC50 lookup, key: Cc1nc2sc3c(NCCC(C)C)n[nH]c3c2c(C)c1Cl [Compound 140]
Data returned: < 5.00

###

- Target entity: mAChR M4 (UniProt P08173)
- Construct: hM1 and hM4 cDNAs were purchased from Missouri S&T cDNA Resource
- Assay method text: mAChR M4 cell-based functional assay (calcium mobilization, Fluo-4, FDSS)
- Settings: positive allosteric modulator activity, EC20 acetylcholine response, CHO-K1 cells
// values below are reported pEC50

Worked examples, 2 compounds total:
> print(dat)
                                   compound  reading
1  Cc1nc2sc3c(NCCC(C)C)n[nH]c3c2c(C)c1Cl [Compound 140]    <5.00
2  Cc1cc(C)c2c(n1)sc1c(NC3CCN(C(C)C)CC3)nn(C)c12 [Compound 162]    <5.00

Here is the next item to consider.
Data request: // pEC50 lookup, key: Cc1cc(C)c2c(n1)sc1c(NC3CCCN(C(=O)OC(C)(C)C)C3)n[nH]c12 (stereo not drawn) [Compound 135]
Data returned: <5.00

###

- Target entity: mAChR M4 (UniProt P08173)
- Construct: hM1 and hM4 cDNAs were purchased from Missouri S&T cDNA Resource
- Assay method text: mAChR M4 cell-based functional assay (calcium mobilization, Fluo-4, FDSS)
- Settings: positive allosteric modulator activity, EC20 acetylcholine response, CHO-K1 cells
Measured attribute: pEC50

Worked examples, 3 compounds total:
> print(dat)
                                   compound              target.entity  measured.attribute  reading
1  Cc1cc(C)c2c(n1)sc1c(NCC3CCCO3)nn(C)c12 (stereo not shown)  mAChR M4 (UniProt P08173)               pEC50     6.02
2  Cc1cc(C)c2c(n1)sc1c(NC3CCSC3)nn(C)c12 (stereo not shown)  mAChR M4 (UniProt P08173)               pEC50     7.06
3  Cc1cc(C)c2c(n1)sc1c(NCc3ccccc3F)n[nH]c12  mAChR M4 (UniProt P08173)               pEC50     5.98

Data request: // pEC50 lookup, key: Cc1cc(C)c2c(n1)sc1c(NC3CCCCC3)nn(C)c12
Data returned: 5.92

###

- Target entity: mAChR M4 (UniProt P08173)
- Construct: hM1 and hM4 cDNAs were purchased from Missouri S&T cDNA Resource
- Sequence (P08173 1-479): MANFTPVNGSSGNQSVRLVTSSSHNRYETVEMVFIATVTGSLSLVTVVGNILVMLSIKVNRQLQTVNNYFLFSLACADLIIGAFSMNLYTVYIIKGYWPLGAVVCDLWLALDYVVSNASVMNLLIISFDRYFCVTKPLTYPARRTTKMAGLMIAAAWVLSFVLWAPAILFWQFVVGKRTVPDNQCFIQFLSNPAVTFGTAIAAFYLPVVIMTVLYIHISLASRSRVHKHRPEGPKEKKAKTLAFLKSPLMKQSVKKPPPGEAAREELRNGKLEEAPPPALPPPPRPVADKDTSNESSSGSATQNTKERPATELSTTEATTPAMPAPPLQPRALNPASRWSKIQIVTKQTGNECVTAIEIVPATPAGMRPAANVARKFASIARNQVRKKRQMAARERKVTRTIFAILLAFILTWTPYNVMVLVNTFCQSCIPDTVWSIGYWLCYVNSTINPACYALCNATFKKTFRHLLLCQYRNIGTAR
- Assay method text: mAChR M4 cell-based functional assay (calcium mobilization, Fluo-4, FDSS)
- Settings: positive allosteric modulator activity: concentration-dependent increase in the EC20 acetylcholine response, CHO-K1 cells; >10 μM estimated for low potency (no plateau)
pEC50: −log10 of the molar value.
// values below are reported pEC50

Worked examples, 4 molecules total:
> print(dat)
                                chem.smiles  measured.attribute  reading
1  COc1ccc(CNc2n[nH]c3c2sc2nc(C)c(Cl)c(C)c23)cc1               pEC50   < 5.00
2  CCCn1nc(NCc2ccc(S(C)(=O)=O)cc2)c2sc3nc(C)cc(C)c3c21               pEC50   < 5.00
3          Cc1ccc2c(n1)sc1c(NC(C)C)n[nH]c12               pEC50   < 5.00
4  Cc1cc(C)c2c(n1)sc1c(NC(=O)c3ccc(F)cc3)nn(C)c12               pEC50   < 5.00

Data request: // pEC50 lookup, key: Cc1cc(C)c2c(n1)sc1c(NCC(C)(C)C)nn(C)c12
Data returned: 6.00

Data request: // pEC50 lookup, key: Cc1cc(C)c2c(n1)sc1c(NC3CCN(C)CC3)nn(C)c12
Data returned: 5.52

Data request: // pEC50 lookup, key: Cc1ccnc(Nc2nn(C)c3c2sc2nc(C)c(Cl)c(C)c23)n1
Data returned: < 5.00

Data request: // pEC50 lookup, key: Cc1ccc2c(n1)sc1c(NCc3ccccc3)n[nH]c12
Data returned: 5.60

Data request: // pEC50 lookup, key: Cc1cc(C)c2c(n1)sc1c(N)nn(C)c12
Data returned: < 5.00
